Tested on: UO-31 renal
measurement-protocol: NCI-60 one-dose screen, 48 h (100 = growth as untreated, 0 = no growth, -100 = all killed)
particulars: 10 µM unless noted
Method: Growth inhibition of the UO-31 human tumor cell line is measured as a screen for anti-cancer activity. Cells are grown in 96 well plates and exposed to the test compound for 48 hours. Compounds are tested at a single concentration, which is 10^-5 M for most compounds. The reported endpoint is percent growth (GI% or GIPRCNT), where numbers from 0 - 100% represent growth inhibition, and numbers from -100% - 0 represent cell death. For example, a value of 40 represents 60% growth inhibition. […]
About 83,000 compounds went through this panel and 20% of them were active in at least one assay; those are over-represented in the sample as a whole.
Please provide measured growth for the entries that follow.
Numbers only, in %.

Use the examples below as a reference point.
COc1cc(C2=NOC(c3cc(OC)c(OC)c(OC)c3)C2)ccc1OCCCCOc1cc2c(cc1OC)C(=O)N1CCC[C@H]1C=N2 (stereo not given in full) : 7.06
Nc1ncnc2c1N=C(c1ccc(F)cc1)CC(c1sc(Cl)nc1Cl)N2 (stereo not given) : 63.2
O=C1C(Cl)=C(N/N=c2/[nH][nH]/c(=N/NC3=C(Cl)C(=O)c4ccccc4C3=O)c3ccccc23)C(=O)c2ccccc21 : 54.7
C1=C\CCCCN2CC[C@H]3[C@H](CCCC/C=C\CCCN4C[C@@H](CCCCC/1)C[C@@H]3C4)C2 : 14.6
ClCc1cccc(CSc2ncnc3c2ncn3Cc2cccc(CCl)c2)c1 : 40.6
C=C(C)C1CCC2(C(=O)O)CCC3(C)C(CCC4C5(C)CCC(O)C(C)(C)C5CCC43C)C12 (stereo not given) : 21.5
COc1ccc(-c2nc(-c3cc(OC)cc(OC)c3)[nH]c2-c2ccc(OC)cc2)cc1 : 36.1
CCCCNCC(O)c1cc2c(Cl)cc(Cl)cc2c2cc(C(F)(F)F)ccc12 (stereo not given) : -81.2

Each compound below has a reported value. Please supply its growth.
1. N#Cc1c(N)n(C2OC(CO)C(O)C2O)c2ncnc(N)c12 (stereo not given)
2. O=C(C(=O)c1cccnc1)c1cccnc1
3. CN(CCO)c1ccc(N2Cc3ccccc3OC3=C2C(=O)c2c(O)ccc(O)c2C3=O)cn1
4. Nc1c(C(=O)Nc2cccc(Cl)c2)sc2ncc(Br)cc12
5. Oc1ccc(Cl)cc1-c1cc(-c2ccccc2Cl)[nH]n1
6. COc1ccc(/C(=C\c2cc(OC)c(OC)c(OC)c2)C(=O)Nc2nc3ccc(Cl)cc3s2)cc1

1: -42.1; 2: 105; 3: -100; 4: 62.2; 5: 38.6; 6: 76.4

Return reported growth values for all items listed beneath this line.
1. COc1ccccc1/C=N\NC(=S)Nc1ccc(F)cc1
2. COc1cc(C2Nc3ccccc3S2)cc(CN2CCOCC2)c1O (stereo not given)
3. Cc1ccc(NC(=O)c2[nH]c(SCCN(C)C)nc2-c2ccc(F)cc2)cc1C#Cc1cnc2cccnn12
4. Cc1ccc(/C=C/C(=N/N=C(N)N)c2ccccc2)cc1

62.2
45.6
-77.2
21.7

Dear reader, for each entry below, please note its growth.
1. C/C(CC(=O)NNc1ccc([N+](=O)[O-])cc1)=N\Nc1ccc([N+](=O)[O-])cc1
2. CCCN(CCC)CC(O)COc1ccccc1C(=O)Nc1ccccc1 (stereo not given)

[40, 78.1]

---

Test system: SR leukemia
measurement-protocol: NCI-60 one-dose screen, 48 h (100 = growth as untreated, 0 = no growth, -100 = all killed)
particulars: 10 µM unless noted
This is part of a sample that, as a whole, favours compounds with a hit. Of some 83,000 tested, about 20% had one in any assay.
quantity: growth (%)
Give bare numbers, in %.

Use these answered entries as a reference point.
Oc1ccc(Nc2ncnc3c2sc2ncccc23)cc1 : 7.62
CCCCOc1ncnc2nc[nH]c12 : 88.7
FC(F)(F)C1=NNC(c2ccc3ccccc3c2)=NN1 : 95
O=C1OCC2=C1C(c1cccc(Br)c1)c1cc3c(cc1N2CCO)OCCO3 (stereo not given) : 29.8
CN=C1C=C/C(=N/N=c2/ccn(O)cc2C)C=C1C : 90.5
Cc1[nH]n(C(=O)c2ccncc2)c(=O)c1N=Nc1ccc(O)c(C(=O)O)c1 : 10.1
COc1c(B(O)O)cccc1-c1nc2c(F)cc3n[nH]c(C)c3c2c2c1CCCC2 : 42
COc1cc2nccc(Oc3ccc(NC(=O)C4(C(=O)Nc5ccc(F)cc5)CC4)cc3)c2cc1Oc1ccc(N)cn1 : 11.9

List growth for every entry below, keeping the order given.
1. CC(=O)N[C@@H](CCC(N)=O)C(=O)O
2. Cc1nc2c(-c3cnc(N)nc3)nc(N3CCOCC3)nc2n1C(C)C

1. 104
2. 7

State the recorded growth for every item in the following list.
1. COc1cc(-c2nc(-c3nc4cc(C(=O)c5ccccc5)ccc4[nH]3)cc3c2[nH]c2ccccc23)cc(OC)c1OC
2. COc1ccc2c(c1)N(CCO)C1=C(C(=O)OC1)C2c1cccc(Br)c1 (stereo not given)
3. CC[C@H](Nc1nc(N)nc(C2CC2)c1C#N)c1nc2cccc(NCc3ccc(C(=O)NO)cc3)c2c(=O)n1-c1ccccc1
4. CC(=O)c1c(C)nc(-c2cc(C)cc(Cl)c2)nc1-c1cccc(Oc2ccccc2)c1
5. O=C1c2ccccc2C(=O)c2c1oc1ccc3ccccc3c21

[81.6, 17.8, -0.809, 10.1, 60.8]

Dear reader, for each entry below, please note its growth.
1. CC(C)N1CCN(c2ccncc2S(=O)(=O)N2CCN(C)CC2)CC1
2. O=C1C(Cl)=C(N/N=c2/[nH][nH]/c(=N/NC3=C(Cl)C(=O)c4ccccc4C3=O)c3ccccc23)C(=O)c2ccccc21
3. COc1ccc2[nH]c(O)c(/C=c3/ccc4c(c3)N=C(c3ccc(C(F)(F)F)cc3)N=4)c2c1
4. CC(=O)N1N=C(c2ccc(C)cc2)CC1c1cn(-c2ccccc2)nc1-c1cccc(Nc2ccnc3cc(Cl)ccc23)c1 (stereo not given)
5. CCC1CCc2nc3sc(C(=O)Nc4cccc(F)c4)c(N)c3cc2C1 (stereo not given)

1. 93.5
2. 19.7
3. 62.6
4. -4.15
5. 12.5

---

Tested on: SNB-75 CNS
measurement-protocol: NCI-60 one-dose screen, 48 h
particulars: 10 µM unless noted
This is part of a sample that, as a whole, favours compounds with a hit. Of some 83,000 tested, about 20% had one in any assay. Calls of active or inactive are those of the source. How the source made its calls: active means growth percent below 10; inactive means the rest.
Select the matching outcome among Y for active, N for inactive

COc1ccc(-n2nc(C(=O)NCC(=O)Nc3nc4cc(OC)ccc4s3)c3ccccc3c2=O)cc1 : Y
CC(=O)N[C@@H](CCC(N)=O)C(=O)O : N
COC(=O)C1(C)COP(=O)(NC23CC4CC(CC(C4)C2)C3)OC1 (configuration not stated) : N

I'd appreciate the recorded outcome for Nc1nc2ccc([C@@H]3Nc4ccc5[nH]ncc5c4[C@H]4[C@H]5CCC(C5)[C@H]43)cc2s1 from this test.
Y

Recorded test call requested for CSC(=S)N/N=C(\C)c1ccccn1
N

Assay outcome for CNCCCNc1ccnc2cc(Cl)ccc12 : what was it?
Y

---

Tested on: HS 578T breast
measurement-protocol: NCI-60 one-dose screen, 48 h (100 = growth as untreated, 0 = no growth, -100 = all killed)
particulars: 10 µM
The panel holds about 83,000 compounds, 20% with a hit somewhere; the sample as a whole holds those more often.
Provide the recorded growth for the entries that follow.
One number for each entry, in %.

Answered cases to consult:
C#CC[C@@H]1C[C@]2(C)[C@H]3CC=C4[C@H]5CC(C)(C)CC[C@]5(C(=O)NCCCCN)CC[C@@]4(C)[C@]3(C)CC[C@H]2C(C)(C)[C@H]1OC(C)=O : 94.3
O=C1C=CC(=O)N1CO : 108
COc1ccc(/C(=C\c2cc(OC)c(OC)c(OC)c2)C(=O)N2CCN(c3ccccc3)CC2)cc1O : 87.8

Value sought for every listed molecule: growth.
1. Fc1cnccc1-c1nc2ccc3[nH]ncc3c2c2c1CCCC2
2. CCCCCCCCNC(C)C(O)c1ccc(SC(C)C)cc1 (stereo unspecified)
3. Nc1cc2nc3ccccc3oc-2cc1=O
4. O=C(Cc1ccc(Nc2ccnc(C(F)(F)F)c2)cc1)N/N=C/c1ccccc1O
5. Clc1cc(Br)ccc1-c1ccc(CNCC2CCNCC2)o1
6. COc1ccc(-c2oc(=O)ccc2-c2cc(OC)c(OC)c(OC)c2)cc1F
7. Cc1c(O)c(=O)n(-c2ccccc2)n1C

1: 10.8; 2: 49.2; 3: -38.3; 4: 102; 5: 62.4; 6: 86.4; 7: 127

Read the entry CCCCCCCCCCCCCCCCOc1ccc(S(=O)(=O)N(C)C)cc1[N+](=O)[O-] and write its reported growth.
80.4

---

System: NCI-H23 lung
measurement-protocol: NCI-60 one-dose screen, 48 h (100 = growth as untreated, 0 = no growth, -100 = all killed)
particulars: 10 µM unless noted
Compounds without any hit were thinned out: in the full panel of roughly 83,000, 20% have a hit.
# strict inequality: growth < 50% yields true, everything else yields false

Sample answers from the record:
CCN(CC)CCC(CNc1ccnc2cc(Cl)ccc12)c1ccc(O)cc1 (stereo not given) : false
COc1ccc(NC(=O)C2c3ccccc3C(=O)N(CC(C)C)C2c2cccs2)cc1 (stereo not given) : false
COc1c(C(=O)/C=C/c2ccc(C)o2)c(O)cc2occc12 : false
CCN(CC)c1ccc(C(=N)c2ccc(N(C)C)cc2)cc1 : true
CC1C2CCC(C2)C1COCCOCCO (stereo not given) : false

Now, please, on to the next compound.
Please state whether growth is below 50% for C=CCn1c(C)nc2cc(Nc3nc(N4CCCC4)nc4nc[nH]c34)ccc21
false
